- Tested on: E. coli ATCC 25922
Entries annotated with measured MIC

The cases that follow already have their MIC on record.
Noted MIC for "CCN1CCN(C(=O)N[C@@H](C(=O)N[C@@H]2C(=O)N3[C@@H]2SC(C)(C)[C@@H]3C(=O)O)c2ccccc2)C(=O)C1=O" , tested on E. coli ATCC 25922: ≤ 8 µg/mL

Response field MIC (E. coli ATCC 25922) for item "CC1(C)S[C@@H]2[C@H](NC(=O)[C@H](N)c3ccccc3)C(=O)N2[C@H]1C(=O)O" : ≤ 2 µg/mL

Field MIC (E. coli ATCC 25922), entry "CC(C)(O/N=C(\C(=O)N[C@@H]1C(=O)N2C(C(=O)[O-])=C(C[n+]3ccccc3)CS[C@H]12)c1csc(N)n1)C(=O)O" : ≤ 2 µg/mL

Attention now turns to another entry.
Reported MIC (E. coli ATCC 25922) for entry CNC(C)C1CCC(N)C(OC2C(N)CC(N)C(OC3OCC(C)(O)C(NC)C3O)C2O)O1 (stereo not shown) is ≤ 1 µg/mL
